Taken from the NIST ThermoML archive (doi:10.1021/acs.jced.7b00148).

Measured Critical pressure values are reported for all entries that follow.
- Stated Conditions: Liquid; Direct measurement
Number in kPa, nothing else.

Below, each entry is followed by its recorded Critical pressure result.
- CC=C(C)C: 3686
- C=CC(C)C: 3463
- C=C(C)CC: 3652

Below: the item to evaluate.
Entry under test: C=CCCC . Its Critical pressure was 3585

====

Here, each record is paired with measured Critical temperature data.
- Stated Conditions: Liquid; Visual observation in an unstirred cell
Kindly provide the numeric value in K only, without the unit symbol.

As a guide, the following entries are already answered.
- C=CCCC [1-pentene]: 466.59
- C=C(C)CC [2-methyl-1-butene]: 467.9
- C=CC(C)C [3-methyl-1-butene]: 451.38

// sample CC=C(C)C [2-methyl-2-butene] , its Critical temperature was 477.47
